# credit: paper PMC12775819

- Experiment: Partition coefficient (logD), n-octanol/PBS pH 7.4
- Type: physicochemical
- Condition Parameters: 68Ga-labeled compounds, mean ± SD, read-out: Partition Coefficient [logDoctanol/PBS]
Non-standard residues stand in square brackets, D forms with d. Residues, ends and D or L forms follow the SMILES beside them. *: point of attachment. DOTA = O=C(O)CN1CCN(CC(=O)O)CCN(CC(=O)*)CCN(CC(=O)O)CC1; EuK = O=C(O)CC[C@H](NC(=O)N[C@@H](CCCCN*)C(=O)O)C(=O)O; 2Nal = N[C@@H](Cc1ccc2ccccc2c1)C(=O)O; Trx = NC[C@H]1CC[C@H](C(=O)O)CC1
Experimental Endpoint: logD

>  <Compound>
O=C(O)CC[C@H](NC(=O)N[C@@H](CCCCNC(=O)[C@H](Cc1c[nH]cn1)NC(=O)[C@H](Cc1c[nH]cn1)NC(=O)[C@H](Cc1c[nH]cn1)NC(=O)[C@H](Cc1ccc2ccccc2c1)NC(=O)[C@H]1CC[C@H](CNC(=O)CN2CCN(CC(=O)O)CCN(CC(=O)O)CCN(CC(=O)O)CC2)CC1)C(=O)O)C(=O)O [PS9, EuK-H3-NaI-ChX-DOTA] ({DOTA-Trx}-[2Nal]HHH-EuK)

>  <Experimental Endpoint>
logD

>  <Value>
-3.2

$$$$

# context switch: different compound, same logD
[Q] Please indicate logD recorded for O=C(O)CC[C@H](NC(=O)N[C@@H](CCCCNC(=O)[C@H](Cc1ccc2ccccc2c1)NC(=O)[C@H]1CC[C@H](CNC(=O)[C@H](CCC(=O)O)NC(=O)[C@H](CCC(=O)O)NC(=O)[C@H](CCC(=O)O)NC(=O)CN2CCN(CC(=O)O)CCN(CC(=O)O)CCN(CC(=O)O)CC2)CC1)C(=O)O)C(=O)O [PS8, EuK-NaI-ChX-E3-DOTA] ({DOTA}-EEE[Trx][2Nal]-EuK)
[A] -3

* * *

- Test system: PSMA-positive LNCaP cells
- Experiment: Surface binding and internalization of 68Ga-labeled compounds
- Assay type: cell-based, human
- Condition Parameters: 30 nM, 45 min, 37 °C, unblocked
- Protocol: The PSMA-positive human cell line LNCaP (human lymph node carcinoma of the prostate; ATCC CRL-1740) was cultivated adherently at 37 °C and humidified 5% CO2 with RPMI-1640 (Thermo Fisher Scientific, Germany) supplemented with 10% fetal bovine serum (Sigma-Aldrich, Germany), 1% sodium pyruvate (Life Technologies, Germany) and 1% penicillin/[…] (Thermo Fisher Scientific, Germany). […]
Non-standard residues stand in square brackets, D forms with d. Residues, ends and D or L forms follow the SMILES beside them. *: point of attachment. DOTA = O=C(O)CN1CCN(CC(=O)O)CCN(CC(=O)*)CCN(CC(=O)O)CC1; EuK = O=C(O)CC[C@H](NC(=O)N[C@@H](CCCCN*)C(=O)O)C(=O)O; 2Nal = N[C@@H](Cc1ccc2ccccc2c1)C(=O)O; Trx = NC[C@H]1CC[C@H](C(=O)O)CC1
Experimental Endpoint: Surface Binding

Worked examples follow.
>  <Molecule>
O=C(O)CC[C@H](NC(=O)N[C@@H](CCCCNC(=O)[C@H](Cc1ccc2ccccc2c1)NC(=O)[C@H]1CC[C@H](CNC(=O)CN2CCN(CC(=O)O)CCN(CC(=O)O)CCN(CC(=O)O)CC2)CC1)C(=O)O)C(=O)O [PSMA-617, EuK-NaI-ChX-DOTA]

>  <Surface Binding>
0.79 ± 0.13 %Binding / %Internalization

$$$$
>  <Molecule>
O=C(O)CC[C@H](NC(=O)N[C@@H](CCCCNC(=O)[C@H](Cc1c[nH]cn1)NC(=O)[C@H](CCC(=O)O)NC(=O)[C@H](Cc1c[nH]cn1)NC(=O)[C@H](CCC(=O)O)NC(=O)[C@H](Cc1c[nH]cn1)NC(=O)[C@H](CCC(=O)O)NC(=O)[C@H](Cc1ccc2ccccc2c1)NC(=O)[C@H]1CC[C@H](CNC(=O)CN2CCN(CC(=O)O)CCN(CC(=O)O)CCN(CC(=O)O)CC2)CC1)C(=O)O)C(=O)O [PS1, EuK-(HE)3-NaI-ChX-DOTA] ({DOTA-Trx}-[2Nal]EHEHEH-EuK)

>  <Surface Binding>
1.15 ± 0.17 %Binding / %Internalization

$$$$
>  <Molecule>
O=C(O)CC[C@H](NC(=O)N[C@@H](CCCCNC(=O)[C@H](Cc1ccc2ccccc2c1)NC(=O)[C@H]1CC[C@H](CNC(=O)[C@H](CCC(=O)O)NC(=O)[C@H](Cc2c[nH]cn2)NC(=O)[C@H](CCC(=O)O)NC(=O)[C@H](Cc2c[nH]cn2)NC(=O)[C@H](CCC(=O)O)NC(=O)[C@H](Cc2c[nH]cn2)NC(=O)CN2CCN(CC(=O)O)CCN(CC(=O)O)CCN(CC(=O)O)CC2)CC1)C(=O)O)C(=O)O [PS4, EuK-NaI-ChX-(EH)3-DOTA] ({DOTA}-HEHEHE[Trx][2Nal]-EuK)

>  <Surface Binding>
1.43 ± 0.12 %Binding / %Internalization

$$$$
>  <Molecule>
O=C(O)CC[C@H](NC(=O)N[C@@H](CCCCNC(=O)[C@H](Cc1ccc2ccccc2c1)NC(=O)[C@H](Cc1c[nH]cn1)NC(=O)[C@H](CCC(=O)O)NC(=O)[C@H](Cc1c[nH]cn1)NC(=O)[C@H](CCC(=O)O)NC(=O)[C@H](Cc1c[nH]cn1)NC(=O)[C@H](CCC(=O)O)NC(=O)[C@H]1CC[C@H](CNC(=O)CN2CCN(CC(=O)O)CCN(CC(=O)O)CCN(CC(=O)O)CC2)CC1)C(=O)O)C(=O)O [PS2, EuK-NaI-(HE)3-ChX-DOTA] ({DOTA-Trx}-EHEHEH[2Nal]-EuK)

>  <Surface Binding>
1.01 ± 0.14 %Binding / %Internalization

$$$$

[Q] Please indicate Surface Binding recorded for O=C(O)CC[C@H](NC(=O)N[C@@H](CCCCNC(=O)[C@H](Cc1ccc2ccccc2c1)NC(=O)[C@H]1CC[C@H](CNC(=O)[C@H](Cc2c[nH]cn2)NC(=O)[C@H](CCC(=O)O)NC(=O)[C@H](Cc2c[nH]cn2)NC(=O)[C@H](CCC(=O)O)NC(=O)[C@H](Cc2c[nH]cn2)NC(=O)[C@H](CCC(=O)O)NC(=O)[C@H](Cc2c[nH]cn2)NC(=O)[C@H](CCC(=O)O)NC(=O)CN2CCN(CC(=O)O)CCN(CC(=O)O)CCN(CC(=O)O)CC2)CC1)C(=O)O)C(=O)O [PS5, EuK-NaI-ChX-(HE)4-DOTA] ({DOTA}-EHEHEHEH[Trx][2Nal]-EuK)
[A] 1.41 ± 0.10 %Binding / %Internalization

[Q] Please indicate Surface Binding recorded for O=C(O)CC[C@H](NC(=O)N[C@@H](CCCCNC(=O)[C@H](Cc1ccc2ccccc2c1)NC(=O)[C@H]1CC[C@H](CNC(=O)[C@H](Cc2c[nH]cn2)NC(=O)[C@H](CCC(=O)O)NC(=O)[C@H](Cc2c[nH]cn2)NC(=O)[C@H](CCC(=O)O)NC(=O)[C@H](Cc2c[nH]cn2)NC(=O)[C@H](CCC(=O)O)NC(=O)CN2CCN(CC(=O)O)CCN(CC(=O)O)CCN(CC(=O)O)CC2)CC1)C(=O)O)C(=O)O [PS3, EuK-NaI-ChX-(HE)3-DOTA] ({DOTA}-EHEHEH[Trx][2Nal]-EuK)
[A] 1.32 ± 0.11 %Binding / %Internalization
